System: NCI-H1975
Experiment: relative viability (nuclei count vs DMSO), 5 days (fraction); higher = more cells survive
Settings: first compound 0.04 µM
For each entry below, report its relative viability value.

Prompt: I'm curious: which relative viability was measured for Cc1sc2c(c1C)C(c1ccc(Cl)cc1)=N[C@@H](CC(=O)OC(C)(C)C)c1nnc(C)n1-2 [JQ1] + CC(=O)c1c(C)c2cnc(Nc3ccc(N4CCNCC4)cn3)nc2n(C2CCCC2)c1=O [Palbociclib] (partner 0.5 µM) tested on NCI-H1975?
Completion: 0.607

Prompt: Notebook entry, NCI-H1975 assay: relative viability of Cc1sc2c(c1C)C(c1ccc(Cl)cc1)=N[C@@H](CC(=O)OC(C)(C)C)c1nnc(C)n1-2 [JQ1] + Cc1nc(Nc2ncc(C(=O)Nc3c(C)cccc3Cl)s2)cc(N2CCN(CCO)CC2)n1 [Dasatinib] (partner 0.075 µM) = ?
Completion: 0.414

Prompt: What relative viability appears in the records for this compound with NCI-H1975? Cc1sc2c(c1C)C(c1ccc(Cl)cc1)=N[C@@H](CC(=O)OC(C)(C)C)c1nnc(C)n1-2 [JQ1] + CC(=O)Nc1cccc(-n2c(=O)n(C3CC3)c(=O)c3c(Nc4ccc(I)cc4F)n(C)c(=O)c(C)c32)c1 [Trametinib] (partner 0.02 µM)
Completion: 0.342

Prompt: Form: Entry = Cc1sc2c(c1C)C(c1ccc(Cl)cc1)=N[C@@H](CC(=O)OC(C)(C)C)c1nnc(C)n1-2 [JQ1] + O=C(CCCCCCC(=O)Nc1ccccc1)NO [Vorinostat] (partner 1 µM) | System = NCI-H1975 | relative viability = ____
Completion: 0.729
